Value source: PubChem BioAssay (NCI)

- Procedure summary: NCI Yeast Anticancer Drug Screen. Data for the mec2-1 strain (AID 157)
- Condition description: S. cerevisiae mec2-1 strain, at 5.0 µM (retest, dose inferred, filed as 0.5), hits give high values
This is part of a sample that, as a whole, favours compounds with a hit. Of some 79,000 tested, about 15% had one in any assay.
Endpoint: growth inhibition (%)

compound=O=C(O)/C(=C/c1ccccc1)c1ccc2ccccc2c1Br endpoint="growth inhibition" result_value=1
compound="COc1cc2c(cc1C(C)C)CCC1C(C)(C#N)CCCC21C (stereo not given)" endpoint="growth inhibition" result_value=3
compound="CCN1C2=NC(=O)N(C)C(=O)C2(Cl)C(C(SC)S(=O)(=O)c2ccc(C)cc2)c2ccccc21 (stereo not given)" endpoint="growth inhibition" result_value=7
compound=CC(=O)Oc1cccc2c(OC(C)=O)cccc12 endpoint="growth inhibition" result_value=-19
compound=O=c1[nH]cnc2nc(I)[nH]c12 endpoint="growth inhibition" result_value=-9
compound=COc1cc[c]([Sn]([O][Sn]([Cl])([c]2ccc(OC)cc2)[c]2ccc(OC)cc2)[c]2ccc(OC)cc2)cc1 endpoint="growth inhibition" result_value=31
compound=Cc1cc(O)c(C)c(C)c1N=Nc1ccccc1 endpoint="growth inhibition" result_value=-52
compound="COC([C@@H](OC(=O)c1ccccc1)[C@H](OC(=O)c1ccccc1)C(O)COC(=O)c1ccccc1)n1cc(C)c(=O)[nH]c1=O (stereo not given in full)" endpoint="growth inhibition" result_value=-8
compound="CC(OC(=O)Nc1cccc(Cl)c1)c1ccccc1 (stereo not given)" endpoint="growth inhibition" result_value=8
compound=O=Cc1[nH]c(=S)[nH]c(=O)c1CCCc1ccccc1 endpoint="growth inhibition" result_value=-7
compound=COc1ccc(N(C)Sc2ccccc2)cc1 endpoint="growth inhibition" result_value=18
compound=CC(C)(C)c1c2c(c(C(C)(C)C)c3c1OCN(Cc1ccccc1)C3)OCN(Cc1ccccc1)C2 endpoint="growth inhibition" result_value=0
compound=CC(C)N(CC(=O)c1ccc2cc(Cl)c3ccccc3c2c1)C(C)C endpoint="growth inhibition" result_value=34
compound=CCCNC(=O)c1ccccc1 endpoint="growth inhibition" result_value=2
compound=CN(C)Cc1ccc2c(c1)c1c(n2Cc2ccccc2)CCCC1 endpoint="growth inhibition" result_value=-7
compound=Oc1ccc2cc(Br)ccc2c1O endpoint="growth inhibition" result_value=-11
compound="COc1ccc(C2c3cc4c(cc3OC(NCCO)C2C)OCO4)cc1 (stereo not given)" endpoint="growth inhibition" result_value=-43
compound=O=[N+]([O-])/C=C/c1c[nH]c2c1ccc1ccccc12 endpoint="growth inhibition" result_value=53
compound=CCCCCCCCCCCCCCCCCC[N+]1(CC)CCCCC1 endpoint="growth inhibition" result_value=99
compound=c1ccc(-c2cc(CN3CCOCC3)c(-c3ccccc3)o2)cc1 endpoint="growth inhibition" result_value=-6
compound=Cc1cc2c(=O)[nH]c(N)nc2nc1C endpoint="growth inhibition" result_value=1
compound=CN(C)CCCNc1c2ccccc2nc2cccc([N+](=O)[O-])c12 endpoint="growth inhibition" result_value=95
compound=Cc1c2c(c(C)c3c1sc1ccccc13)CCN=C2 endpoint="growth inhibition" result_value=-14
compound=COc1cccc(C=Nc2ccc(I)cc2)c1O.COc1cccc(C=Nc2ccc(I)cc2)c1O.[Co] endpoint="growth inhibition" result_value=11
compound=CCN(CC)C(C)(C)C(=O)/C=C/c1ccc(Cl)cc1 endpoint="growth inhibition" result_value=-15
compound=COC(=O)c1ccccc1NC(=O)C(=O)Cc1nc2c3c(ccc2[nH]c1=O)C(=O)c1ccccc1C3=O endpoint="growth inhibition" result_value=12
compound=O=C(CBr)c1cc(-c2ccc(Cl)cc2)nc2ccccc12 endpoint="growth inhibition" result_value=95
compound=CN(C)C(=S)/N=c1\ss/c(=N\S(=O)(=O)c2ccccc2)n1-c1ccccc1 endpoint="growth inhibition" result_value=-5
compound=CCCCCCCCCCCCCCCCC/C=N\NC(=O)CCCC(=O)N/N=C/CCCCCCCCCCCCCCCCC endpoint="growth inhibition" result_value=-4
compound=CCCSc1ncnc2nc(C)[nH]c12 endpoint="growth inhibition" result_value=3
compound=CCCCCCCCCCCCCCCCCCNCCCCCCCCCCCCCCCC endpoint="growth inhibition" result_value=-1
compound=O=C1c2cccc3cc4ccccc4c(c23)C(=O)N1CCCNCCNCCCN1C(=O)c2cccc3cc4ccccc4c(c23)C1=O endpoint="growth inhibition" result_value=96
compound=Cc1ccc(S(=O)(=O)NNc2nc(N(C)C)nc(N(C)C)n2)cc1 endpoint="growth inhibition" result_value=7
compound=CCOc1ccc2nc3cc(Cl)ccc3[n+](C)c2c1 endpoint="growth inhibition" result_value=14
compound=Cc1occc1C(=S)Nc1ccc(Cl)c(COC(C)(C)C)c1 endpoint="growth inhibition" result_value=6
compound="COc1cc2c(cc1OC)NCC1COc3c(ccc(OC)c3OC)C1=N2 (stereo not given)" endpoint="growth inhibition" result_value=14
compound=O=c1ccc2c(COc3ccc(Cl)cc3Cl)c3ccc(O)cc3oc-2c1 endpoint="growth inhibition" result_value=-3
compound=COc1ccc(-n2cc(-c3ccc(Cl)cc3)c3c(N)ncnc32)cc1 endpoint="growth inhibition" result_value=23
compound=Nc1ccc2ccccc2c1N=Cc1ccccc1[N+](=O)[O-] endpoint="growth inhibition" result_value=-10
compound=Clc1ccc(CSCCc2ccncc2)cc1Cl endpoint="growth inhibition" result_value=0
compound=Nc1cc(Cl)c2c(c1)Cc1ccccc1-2 endpoint="growth inhibition" result_value=2
compound=O=C(O)C1(Cc2ccc3c(c2)CCC3)Cc2cc3c(cc2C1)CCC3 endpoint="growth inhibition" result_value=-7
compound=CCCCCCCCCCCC#CCCCCC(=O)O endpoint="growth inhibition" result_value=95
compound=O=C(CNc1cccc([N+](=O)[O-])c1)Nn1c(-c2ccccc2)nc2ccccc2c1=O endpoint="growth inhibition" result_value=-3
compound="CC1(C)OC2C(COC(c3ccccc3)(c3ccccc3)c3ccccc3)OC(n3cnc4c(=O)[nH]cnc43)C2O1 (stereo not given)" endpoint="growth inhibition" result_value=62

---

Some compounds, each annotated with its measured growth inhibition.
- Procedure summary: NCI Yeast Anticancer Drug Screen. Data for the mlh1 rad18 strain (AID 175)
- Condition description: S. cerevisiae mlh1 rad18 strain growth inhibition; at 50.0 µM; hits give high values
Compounds without any hit were thinned out: in the full panel of roughly 79,000, 15% have a hit.
Endpoint: growth inhibition (%)

compound=Clc1ccc(CN2COc3c(cc(Cl)c4cccnc34)C2)cc1Cl endpoint="growth inhibition" result_value=47.9
compound="CCCCCCC1CCC(CCCCCCCC(=O)N2CCN(C)CC2)C(C/C=C/CCCCCCCC(=O)N2CCN(C)CC2)C1CCCCC (stereo unspecified)" endpoint="growth inhibition" result_value=98.9
compound=CCc1nc(N)nc(N)c1-c1ccc(NCCc2ccccc2)c([N+](=O)[O-])c1 endpoint="growth inhibition" result_value=24.9
compound=CCCCCCCCCCCCCCOS(=O)(=O)O endpoint="growth inhibition" result_value=99.5
compound=Oc1cccc(NCSc2ccc(Cl)cc2)c1 endpoint="growth inhibition" result_value=94
compound=COC(=O)c1cn(NS(=O)(=O)c2ccc(OC)cc2)cc1C(=O)OC endpoint="growth inhibition" result_value=20.9
compound=Clc1ccc(CN2COc3c(ccc4cccnc34)C2)cc1 endpoint="growth inhibition" result_value=93
compound=Fc1cccc(NC(=S)SCc2ccc(Cl)cc2)c1 endpoint="growth inhibition" result_value=99.6
compound=CC(=O)C(C=O)C(C)=O.CC(=O)CC(C)=O.CC(=O)CC(C)=O.[Ru] endpoint="growth inhibition" result_value=52.8
compound=N#CCCN(C(=S)Nc1cccc(C(F)(F)F)c1)C1CCCCC1 endpoint="growth inhibition" result_value=61.2
compound=CN(C)C(=O)Nc1ccc(Cc2ccc(NC(=O)N(C)C)cc2)cc1 endpoint="growth inhibition" result_value=-0.15

---

- Procedure summary: NCI Yeast Anticancer Drug Screen. Data for the bub3 strain (AID 167)
- Condition description: S. cerevisiae bub3 mutant strain, at 50.0 µM, hits give high values
The panel holds about 79,000 compounds, 15% with a hit somewhere; the sample as a whole holds those more often.
Endpoint: growth inhibition (%)

molecule=CCNC(=S)N/N=C(\C)c1cccc(C)n1 result_value=62
molecule=CC(C)=CCC/C(=C/CC/C(C)=C/CCc1ccoc1)C(=O)O result_value=53
molecule="COc1cc(C(c2cc3c(cc2OC(C)=O)OCO3)C(C)C(C)=O)cc(OC)c1OC (configuration not stated)" result_value=-1.75
molecule=C[N+](C)(C)CCN(Cc1cccs1)c1ccccn1 result_value=-4.2
molecule=CCCCCCCCCCCC(=O)C(=O)c1ccc(O)cc1O result_value=95.8
molecule=O=c1c(Cl)nsnc1Cl result_value=99.7
molecule=CC(=O)Nc1cccc2c1ccc1ccc3ccccc3c12 result_value=5.75
molecule="Cc1cccc2c1Oc1cc(Cl)ccc1C2NC(=O)CCN1CCN(CCO)CC1 (configuration not stated)" result_value=39.4
molecule=c1ccc(-c2cc(CN3CCOCC3)c(-c3ccccc3)o2)cc1 result_value=55.8
molecule="C/C=C/C(=O)NCC(C(C)C)/[N+]([O-])=N/O (configuration not stated)" result_value=91.8
molecule=COc1ccc(-c2nc3c(C(=O)NCCN(C)C)cccc3c3ccccc23)cc1 result_value=-15.3
molecule="CC(=O)OC1CC2Cc3ccccc3C3(O)COC213 (configuration not stated)" result_value=59
